Test system: Zymoseptoria tritici (SEPTTR-184)
Experiment: Cyp51 dsRNA tile (fragment) foliar application bioassay (Example 6)
Type: in vivo
Settings: 3 days curative; rate 200 ppm; average of 2 trials
Experimental: The 200 ppm concentration for each treatment was prepared by adding the calculated volume of the corresponding dsRNA solution in TE buffer. […] A non-target dsRNA control (YFP), a TE/phosphate buffer control, disease pressure control, and clean plant control were included. These plants were inoculated with an aqueous spore suspension of Zymoseptoria tritici either prior to or after fungicidal treatments. […]
Readings of Disease Control (%) SEPTTR-184 3DC for the listed molecules

Molecule	Disease Control (%) SEPTTR-184 3DC
MgCyp51-T10: dsRNA tile of Zymoseptoria tritici Cyp51, 172 bp, location 345-516 (nucleic acid, listed as Zymoseptoria tritici) GGACGTCAACGCGGAGGAGATATACAGCCCGCTGACCACTCCTGTCTTTGGCAAGGATGTGGTTTATGATTGTCCCAATTCGAAGCTCATGGAGCAGAAGAAGTTCGTCAAGTACGGCCTCACAACCTCTGCCCTCCAGTCCTACGTGACCTTGATCGCCGCCGAGACCCGC	58
MgCyp51-T1: dsRNA tile of Zymoseptoria tritici Cyp51, 232 bp, location 166-397 (nucleic acid, listed as Zymoseptoria tritici) GTATTCCACTGGGTGCCCTTCATCGGAAGCACCATCACATACGGCATCGACCCATACAAGTTCTTCTTCTCCTGTCGGGAAAAGTATGGAGATGTCTTTACATTCATCCTGCTGGGAAAGAAGACGACGGTGTGCTTGGGCACCAAGGGCAATGATTTTATTTTGAATGGAAAACTGAAGGACGTCAACGCGGAGGAGATATACAGCCCGCTGACCACTCCTGTCTTTGGCA	70
MgCyp51-T8: dsRNA tile of Zymoseptoria tritici Cyp51, 242 bp, location 1151-1392 (nucleic acid, listed as Zymoseptoria tritici) TTCTGCGCAAGGTCAAGTCTCCCATGCCCATCGAAGGTACGGCATACGTCATTCCAACCACCCACACTCTTCTGGCCGCTCCGGGCACAACGAGCCGCATGGACGAGCACTTTCCCGACTGCCTCCATTGGGAGCCGCATCGATGGGACGAGAGCCCGTCCGAGAAATACAAGCACCTGTCCCCGACGACTGCCCTAGGAAGCATCGCCGAGGAGAAAGAAGACTATGGCTACGGCCTGGTA	73
MgCyp51-T6: dsRNA tile of Zymoseptoria tritici Cyp51, 280 bp, location 881-1160 (nucleic acid, listed as Zymoseptoria tritici) ATGCCATTCCCGACAAGGAGATTGCTCATATGATGATTGCGCTGCTCATGGCCGGCCAGCACTCTTCATCTGCGACCGAGTCCTGGATCACTCTCCGCCTCGCATCCCGCCCCGACATCCAAGACGAACTCCTCCAAGAACAAAAGGATATGCTCGGTGTGAACGCCGACGGCAGTATCAAGGAGCTCACATACGCCAACCTCTCGAAACTCACCCTCCTCAATCAAGTCGTCAAAGAAACCCTTCGTATTCACGCTCCAATCCACTCCATTCTGCGCAA	61
